experimental-details: in vitro
condition-parameters: human, Picorana CC50
measured-attribute: CC50 (µg/mL)
Record the value in µg/mL, omitting the unit from your answer.

Requested read-out: CC50. Entry: CC(=O)Nc1cccc2c1C(=O)C1(O)c3ccc(C(C)C)cc3OC21O (stereo not shown)
35

Again, but for CC(C)c1ccc2c(c1)OC1(O)c3cccc(N)c3C(=O)C21NC(=O)/C=C/c1ccc(Cl)c(Cl)c1 (stereo not shown)
4.32

Again, but for CC(C)c1ccc2c(c1)OC1(O)c3ccccc3C(=O)C21NC(=O)c1ccc(=O)oc1 (stereo not shown)
28.2

Again, but for CC(=O)OC12Oc3cc(C(C)C)ccc3C1(OC(C)=O)C(=O)c1ccccc12 (stereo not shown)
16.2

* * *

Please provide measured CC50 for the entries that follow.
experimental-details: in vitro
condition-parameters: human, Picorana CC50
Record the value in µg/mL, omitting the unit from your answer.

Requested read-out: CC50. Entry: CC(=O)Nc1cccc2c1C(=O)C1(N)c3ccc(C(C)C)cc3OC21O (stereo not drawn)
42.2

Again, but for CC(C)c1ccc2c(c1)OC1(O)c3ccc([N+](=O)[O-])c(N)c3C(=O)C21O (stereo not drawn)
10.6

Again, but for CC(C)c1ccc2c(c1)OC1(O)c3ccccc3C(=O)C21NC(=O)c1nc[nH]n1 (stereo not drawn)
39.4

Again, but for CO/N=C1/c2ccccc2C2(NOC)Oc3cc(C(C)C)ccc3C12O (stereo not drawn)
37.3

Again, but for CC(C)c1ccc2c(c1)OC1(O)c3cccc(N)c3C(=O)C21NC(=O)c1cccc2cccnc12 (stereo not drawn)
9.6

Again, but for Cc1cc2c(c(C)c1C)C1(O)C(=O)c3ccccc3C1(O)O2 (stereo not drawn)
8.01

Again, but for CC(C)c1ccc2c(c1)OC1(O)c3ccccc3C(=O)C21NC(=O)c1cc(-c2ccccc2)n[nH]1 (stereo not drawn)
8.63

Again, but for Cc1cc(C)cc(C(=O)NC23C(=O)c4c(N)cccc4C2(O)Oc2cc(C(C)C)ccc23)c1 (stereo not drawn)
4.12

Again, but for CC(C)c1ccc2c(c1)OC1(C)c3ccccc3C(=O)C21O (stereo not drawn)
6.69

Again, but for COc1cc2c(cc1OC)[C@]1(O)Oc3cc(C(C)C)ccc3[C@]1(O)C2=O
8.61

Again, but for CC(C)c1ccc2c(c1)OC1(O)c3ccccc3C(=O)C21NC(=O)c1ccc2[nH]cnc2c1 (stereo not drawn)
8.25

Again, but for CC(C)c1ccc2c(c1)OC1(O)c3cccc(N)c3C(=O)C21NC(=O)c1cc2ccccc2[nH]1 (stereo not drawn)
4.75

Again, but for CC(=O)OC12Oc3cc(C(C)C)ccc3C1(OC(C)=O)C(O)c1ccccc12 (stereo not drawn)
37.6

Again, but for CCN(CC)C(=O)OC12C(=O)c3ccccc3C1(O)Oc1cc(C(C)C)ccc12 (stereo not drawn)
27.1

Again, but for CC(C)c1ccc2c(c1)OC1(O)c3cccc(N)c3C(=O)C21NC(=O)C1CC1 (stereo not drawn)
44.7

Again, but for Cc1ccc(C(=O)NC23C(=O)c4c(N)cccc4C2(O)Oc2cc(C(C)C)ccc23)s1 (stereo not drawn)
4.75

Again, but for CCCCOC(=O)OC12Oc3cc(C(C)C)ccc3C1(NC(C)=O)C(=O)c1c(N)cccc12 (stereo not drawn)
42.8

Again, but for C=C1c2ccccc2C2(OC)Oc3cc(C(C)C)ccc3C12O (stereo not drawn)
6.79

Again, but for Cc1nc(C(=O)NC23C(=O)c4c(N)cccc4C2(O)Oc2cc(C(C)C)ccc23)c2ccccn12 (stereo not drawn)
7.01

Again, but for CC(C)c1ccc2c(c1)OC1(O)c3ccccc3C(C)C21O (stereo not drawn)
7.8

Again, but for CC(C)c1ccc2c(c1)OC1(O)c3cccc(N)c3C(=O)C21NC(=O)C(C)(C)C (stereo not drawn)
45.9

Again, but for CC(C)c1ccc2c(c1)OC1(O)c3ccccc3C(=O)C21N (stereo not drawn)
18.2

Again, but for CC(=O)Nc1ccc([N+](=O)[O-])c2c1C(=O)C1(NC(C)=O)c3ccc(C(C)C)cc3OC21OC(C)=O (stereo not drawn)
14.4

Again, but for CC(=O)Nc1cccc2c1C(=O)[C@@]1(NC(C)=O)c3ccc(C(C)C)cc3O[C@@]21O
36.8

Again, but for CCc1ccc2c(c1)OC1(O)c3ccccc3C(=O)C21O (stereo not drawn)
18

Again, but for Cc1ccc2c(Cl)c(C(=O)NC34C(=O)c5c(N)cccc5C3(O)Oc3cc(C(C)C)ccc34)sc2c1 (stereo not drawn)
6.57

Again, but for Cc1cc2c(cc1C)C1(O)Oc3cc(C(C)C)ccc3C1(O)C2=O (stereo not drawn)
1.9

Again, but for Cc1cc(C)n2ncc(C(=O)NC34C(=O)c5c(N)cccc5C3(O)Oc3cc(C(C)C)ccc34)c2n1 (stereo not drawn)
6.78

* * *

Please provide measured EC50 for the entries that follow.
Test system: Echo 11
experimental-details: Multicycle CPE reduction assay, Echo 11
Type: cell-based
condition-parameters: BGM, read-out: Echo 11 EC50
Record the value in nM, omitting the unit from your answer.

Requested read-out: EC50. Entry: CC(C)c1ccc2c(c1)O[C@@]1(O)c3cccc(N)c3C(=O)[C@@]21O
2.3

Again, but for CC(=O)NC12C(=O)c3ccccc3C1(O)Oc1cc(C(C)C)ccc12 (stereo not drawn)
7.2

Again, but for CC(C)c1ccc2c(c1)OC1(O)c3ccccc3C(=O)C21O (stereo not drawn)
21

* * *

Please provide measured CC50 for the entries that follow.
experimental-details: in vitro
condition-parameters: human, Picorana CC50

Requested read-out: CC50. Entry: CC(C)c1ccc2c(c1)OC1(O)c3cccc(N)c3C(=O)C21NC(=O)c1cnnc2ccccc12 (stereo not shown)
8.33 µg/mL

Again, but for COc1ccc(CN2CCN(c3ccc4c(c3)C(=O)C3(O)c5ccc(C(C)C)cc5OC43O)CC2)cc1 (stereo not shown)
1.72 µg/mL

Again, but for CC(C)c1ccc2c(c1)O[C@@]1(O)c3cc4ccccc4cc3C(=O)[C@@]21O
6.25 µg/mL

Again, but for CC(=O)NC12Oc3cc(C(C)C)ccc3C1(NC(C)=O)C(=O)c1ccccc12 (stereo not shown)
38.2 µg/mL

Again, but for COc1cc(C(=O)NC23C(=O)c4c(N)cccc4C2(O)Oc2cc(C(C)C)ccc23)nc2ccccc12 (stereo not shown)
20 µg/mL

Again, but for CC(C)(C)c1cc(C(C)(C)C)c2c(c1)C1(O)C(=O)c3ccccc3C1(O)O2 (stereo not shown)
8.8 µg/mL

Again, but for CC(C)c1ccc2c(c1)OC1(O)c3cccc(N)c3C(=O)C21NC(=O)c1cc(C(F)(F)F)ccn1 (stereo not shown)
15.7 µg/mL

Again, but for CCc1ccc2c(c1)OC1(O)c3ccc(O)cc3C(=O)C21O (stereo not shown)
> 50 µg/mL

Again, but for CCOC(=O)OC12Oc3cc(C(C)C)ccc3C1(NC(C)=O)C(=O)c1ccccc12 (stereo not shown)
41.7 µg/mL

Again, but for COC(=O)OC12Oc3cc(C(C)C)ccc3C1(NC(C)=O)C(=O)c1ccccc12 (stereo not shown)
43.6 µg/mL

Again, but for CCCC(=O)N[C@@]12C(=O)c3c(N)cccc3[C@]1(OC(=O)CCC)Oc1cc(C(C)C)ccc12
38.1 µg/mL

Again, but for CC(C)c1ccc2c(c1)OC1(O)c3cccc(NCc4ccccc4)c3C(=O)C21O (stereo not shown)
0.72 µg/mL

Again, but for CC(C)c1ccc2c(c1)OC1(O)c3ccc(N4CCC(O)CC4)cc3C(=O)C21O (stereo not shown)
1.53 µg/mL

Again, but for CC(C)c1ccc2c(c1)OC1(O)c3cccc(N)c3C(=O)C21NC(=O)c1nc2ccccc2[nH]1 (stereo not shown)
4.32 µg/mL

Again, but for CC(C)c1ccc2c(c1)OC1(O)c3ccccc3C(=O)C21NC(=O)c1ccncn1 (stereo not shown)
45.1 µg/mL

Again, but for CC(C)c1ccc2c(c1)OC1(O)c3ccccc3C(=O)C21NC(=O)c1cccs1 (stereo not shown)
40.7 µg/mL

* * *

Test system: Echo 9
experimental-details: Multicycle CPE reduction assay, Echo 9
Type: cell-based
condition-parameters: MRC5, read-out: Echo 9 EC50
measured-attribute: EC50 (nM)
Record the value in nM, omitting the unit from your answer.

Requested read-out: EC50. Entry: CC(C)c1ccc2c(c1)O[C@@]1(O)c3cccc(N)c3C(=O)[C@@]21O [Example 46]
3.5

* * *

System: Rhino 45
experimental-details: Multicycle CPE reduction assay, Rhino 45
Assay type: cell-based
condition-parameters: incubation at 37° C. in HeLa cells; listed as Ex. 46
measured-attribute: EC50

Requested read-out: EC50. Entry: CC(C)c1ccc2c(c1)O[C@@]1(O)c3cccc(N)c3C(=O)[C@@]21O
< 78 nM

* * *

Test system: Polio 1
experimental-details: organism not typed
Assay type: cell-based
condition-parameters: BGM, read-out: Polio 1 EC50
measured-attribute: EC50 (nM)
Record the value in nM, omitting the unit from your answer.

Requested read-out: EC50. Entry: CC(C)c1ccc2c(c1)OC1(O)c3ccccc3C(=O)C21O (stereo not drawn) [Example 10]
750

Again, but for CC(C)c1ccc2c(c1)O[C@@]1(O)c3cccc(N)c3C(=O)[C@@]21O [Example 46]
68

Again, but for CC(=O)NC12C(=O)c3ccccc3C1(O)Oc1cc(C(C)C)ccc12 (stereo not drawn) [Example 66]
690

Origin of the recorded values: patent US9890133B2
